Listed below: inhibition at 20 µM values for each entry.
- Measured target: NKCC1 (Homo sapiens, UniProt P55011)
- Construct: endogenous in cells; host or cells: native HEK293 cells
- Sequence (P55011 whole entry): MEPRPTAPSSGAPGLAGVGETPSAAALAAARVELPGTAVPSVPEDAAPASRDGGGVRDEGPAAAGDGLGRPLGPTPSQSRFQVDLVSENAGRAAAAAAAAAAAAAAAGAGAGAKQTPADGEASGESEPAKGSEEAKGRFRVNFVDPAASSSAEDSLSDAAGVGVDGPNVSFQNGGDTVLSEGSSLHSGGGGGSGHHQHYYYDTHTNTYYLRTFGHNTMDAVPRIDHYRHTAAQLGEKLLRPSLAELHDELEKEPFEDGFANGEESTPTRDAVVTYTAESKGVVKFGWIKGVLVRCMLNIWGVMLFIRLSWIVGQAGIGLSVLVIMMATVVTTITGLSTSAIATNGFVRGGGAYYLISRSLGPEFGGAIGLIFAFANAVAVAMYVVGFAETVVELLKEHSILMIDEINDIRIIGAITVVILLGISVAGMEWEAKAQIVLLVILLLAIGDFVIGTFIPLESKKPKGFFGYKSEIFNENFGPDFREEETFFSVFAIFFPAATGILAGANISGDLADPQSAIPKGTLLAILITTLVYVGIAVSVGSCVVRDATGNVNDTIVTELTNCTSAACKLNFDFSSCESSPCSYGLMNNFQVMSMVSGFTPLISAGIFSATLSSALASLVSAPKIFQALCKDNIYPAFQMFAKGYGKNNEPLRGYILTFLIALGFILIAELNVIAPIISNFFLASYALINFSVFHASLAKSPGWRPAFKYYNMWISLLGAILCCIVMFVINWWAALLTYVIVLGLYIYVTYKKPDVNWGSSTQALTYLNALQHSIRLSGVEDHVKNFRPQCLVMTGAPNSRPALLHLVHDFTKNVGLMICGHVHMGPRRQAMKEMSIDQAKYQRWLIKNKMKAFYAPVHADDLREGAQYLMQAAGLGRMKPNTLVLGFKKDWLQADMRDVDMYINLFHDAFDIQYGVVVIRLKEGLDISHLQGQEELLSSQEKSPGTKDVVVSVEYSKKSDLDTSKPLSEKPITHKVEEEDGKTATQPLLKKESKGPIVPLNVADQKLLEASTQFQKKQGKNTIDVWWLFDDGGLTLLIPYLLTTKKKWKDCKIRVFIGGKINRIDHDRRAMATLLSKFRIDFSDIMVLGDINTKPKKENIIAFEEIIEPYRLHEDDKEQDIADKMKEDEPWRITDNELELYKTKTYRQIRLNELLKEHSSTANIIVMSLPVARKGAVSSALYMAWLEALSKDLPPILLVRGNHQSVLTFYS
- Test details: NKCC1-mediated K+ influx (83Rb tracer uptake) in native HEK293 cells, hypertonic saline, 100 μM ouabain
- Assay type: cell-based
- Conditions used: HEK293; 20 μM; no drug = 1000, 20 μM bumetanide = 0; read-out: NKCC1 mediated flux inhibition at 20 μM (%)

CCCCNc1cc(C(=O)O)cc(S(=O)(=NC)N(C)CC)c1Oc1ccccc1 (centres unmarked) :: 30 to 50%
CCCCNc1cc(C(=O)OC)cc(S(=N)(=O)Nc2nccn2C)c1Oc1ccccc1 (centres unmarked) :: 30 to 50%
CCCCNc1cc(C(=O)OC)cc(S(=N)(=O)NC2CCN(C)CC2)c1Oc1ccccc1 (centres unmarked) :: 30 to 50%
CCCCNc1cc(C(=O)OC)cc(S(=N)(=O)Nc2cccnc2)c1Oc1ccccc1 (centres unmarked) :: 10 to 30%
CCCCNc1cc(C(=O)O)cc(S(=N)(=O)NC2CCN(C)CC2)c1Oc1ccccc1 (centres unmarked) :: 50 to 75%
CCCCNc1cc(C(=O)O)cc(S(=N)(=O)N2CCC(c3ccccc3)CC2)c1Oc1ccccc1 (centres unmarked) :: ≥ 75%

Tell me inhibition at 20 µM reported for CCCCNc1cc(C(=O)OC)cc(S(=N)(=O)Nc2ccncc2)c1Oc1ccccc1 (centres unmarked)
10 to 30%

Specify reported inhibition at 20 µM for the compound shown: CCCCNc1cc(C(=O)O)cc(S(=N)(=O)NCCc2cccc(Cl)c2)c1Oc1ccccc1 (centres unmarked)
≥ 75%

Please indicate inhibition at 20 µM recorded for CCCCNc1cc(C(=O)OC)cc(S(=N)(=O)N2Cc3ccccc3C2)c1Oc1ccccc1 (centres unmarked)
30 to 50%

Recall and state the measured inhibition at 20 µM for CCCCNc1cc(C(=O)NOC)cc(S(=N)(=O)NCc2cccc(Cl)c2)c1Oc1ccccc1 (centres unmarked) .
10 to 30%

State its inhibition at 20 µM: CCCCNc1cc(C(=O)NCC(F)(F)F)cc(S(=N)(=O)NC2CCOCC2)c1Oc1ccccc1 (centres unmarked)
10 to 30%

Provide inhibition at 20 µM value for the following compound: CCCCNc1cc(C(=O)N(C)C)cc(S(=N)(=O)Nc2ccccc2)c1Oc1ccccc1 (centres unmarked)
10 to 30%

Specify inhibition at 20 µM for CCCCNc1cc(C(=O)O)cc(S(=N)(=O)Nc2nccn2C)c1Oc1ccccc1 (centres unmarked) and stop.
50 to 75%

# return recorded inhibition at 20 µM for input CCCCNc1cc(C(=O)OC)cc(S(=N)(=O)NCc2nccs2)c1Oc1ccccc1 (centres unmarked)
10 to 30%
